Molecular target: T1, PTP1B (Homo sapiens, UniProt P18031 P18031:1-321)
T1 sequence: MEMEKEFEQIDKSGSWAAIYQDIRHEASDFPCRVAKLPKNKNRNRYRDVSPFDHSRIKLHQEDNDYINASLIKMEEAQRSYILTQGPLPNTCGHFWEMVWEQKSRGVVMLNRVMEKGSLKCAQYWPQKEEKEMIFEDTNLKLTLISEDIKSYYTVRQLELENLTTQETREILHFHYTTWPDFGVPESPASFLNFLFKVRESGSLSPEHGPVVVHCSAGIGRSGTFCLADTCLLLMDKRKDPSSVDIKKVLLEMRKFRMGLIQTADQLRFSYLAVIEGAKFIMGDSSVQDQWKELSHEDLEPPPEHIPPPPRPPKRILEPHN
Assay: inhibition; 125 mM NaCl, DiFMUP
Conditions: tags: N-terminal His6; R&D Systems 1366-PT-050; hairpin
reported.metric: pKi
Worth noting: pKi values are minus log10 of concentrations stated in mol/L.

For the binder C13 (ssRNA) RNA: GGGAAUGGAUCCACAUCUACGAAUUCUGUGAUCAAUUUGGCAAUCCGCCACACGAGUUCACUGCAGACUUGACGAAGCUU , give its measured pKi value.
8.15
